The origin of these recorded values is patent EP2832348B1.

measurement notes: Solubility of triptophenolide in aqueous solutions with different concentrations of gastrodin and/or water-soluble cyclodextrin
Format: physicochemical
test context: aqueous solution of solubilizer, aqueous with cosolvent or surfactant or cyclodextrin, Hydroxypropyl-β-cyclodextrin concentration 50 %
assay metric: solubility (mg/mL)
# number only, unit mg/mL dropped from output

Query: Bench note: what solubility did OC[C@H]1O[C@@H](Oc2cc(/C=C/c3cc(O)cc(O)c3)ccc2O)[C@H](O)[C@@H](O)[C@@H]1O show?
Reply: 183

* * *

measurement notes: Solubility of triptophenolide in aqueous solutions with different concentrations of gastrodin and/or water-soluble cyclodextrin
Assay type: physicochemical
test context: aqueous solution of solubilizer, aqueous with cosolvent or surfactant or cyclodextrin, Hydroxypropyl-β-cyclodextrin concentration 35 %
assay metric: solubility (mg/mL)
# number only, unit mg/mL dropped from output

Query: Bench note: what solubility did OC[C@H]1O[C@@H](Oc2cc(/C=C/c3cc(O)cc(O)c3)ccc2O)[C@H](O)[C@@H](O)[C@@H]1O show?
Reply: 159
